test system: H358 cells; assay: Cell viability assay (CELLTITER-GLO), H358 cells; format: cell-based; settings: Table 4; 3 days
metric: Inhibition of H358 cells, IC50 (class)

- compound: "CC(=O)N1CCN(c2ncnc3c(F)c(-c4c(F)cccc4OCCCCCCCN4CCC(c5cc(F)cc6c5CN(C5CCC(=O)NC5=O)C6=O)CC4)c(Cl)cc23)CC1 (centres unmarked)"
  metric: "Inhibition of H358 cells, IC50 (class)"
  value: "B′"
- compound: "C=C(Cl)C(=O)N1CCN(c2ncnc3c(F)c(-c4c(F)cccc4OCCCCCN4CCC(c5cc(F)cc6c5CN(C5CCC(=O)NC5=O)C6=O)CC4)c(Cl)cc23)CC1 (centres unmarked)"
  metric: "Inhibition of H358 cells, IC50 (class)"
  value: "A′"
- compound: "C=CC(=O)N1C[C@@H]2C(=O)N(C)c3cnc4c(F)c(-c5c(F)cccc5OCCCCCCCN5CCC(c6cc(F)cc7c6CN(C6CCC(=O)NC6=O)C7=O)CC5)c(Cl)cc4c3N2C[C@H]1C (some centres unmarked)"
  metric: "Inhibition of H358 cells, IC50 (class)"
  value: "B′"
- compound: "C=C(Cl)C(=O)N1CCN(c2ncnc3c(F)c(-c4c(F)cccc4OC[C@H]4CC[C@@H](CN5CCC(c6cc(F)cc7c6CN(C6CCC(=O)NC6=O)C7=O)CC5)CC4)c(Cl)cc23)CC1 (some centres unmarked)"
  metric: "Inhibition of H358 cells, IC50 (class)"
  value: "A′"
- compound: "C=C(Cl)C(=O)N1CCN(c2nc(OC[C@@H]3CCCN3C)nc3c(F)c(-c4c(F)cccc4OCCCCCCCN4CCC(c5cc(F)cc6c5CN(C5CCC(=O)NC5=O)C6=O)CC4)c(Cl)cc23)CC1 (some centres unmarked)"
  metric: "Inhibition of H358 cells, IC50 (class)"
  value: "A′"

Query string: Returns the measured Inhibition of H358 cells, IC50 (class) for the input compound. Input: C=C(Cl)C(=O)N1CCN(c2ncnc3c(F)c(-c4c(F)cccc4OCCCCCCCN4CCCC(c5cc(F)cc6c5CN(C5CCC(=O)NC5=O)C6=O)C4)c(Cl)cc23)CC1 (centres unmarked)
Result string: A′

Query string: What do you get for CCC(=O)N1CCN(c2ncnc3c(F)c(-c4c(F)cccc4OCCNCC(=O)N4CCC(C#Cc5cccc6c5CN(C5CCC(=O)NC5=O)C6=O)CC4)c(Cl)cc23)CC1 (centres unmarked) ?
Result string: D′

Query string: What do you get for C=CC(=O)N1CCN(c2ncnc3c(F)c(-c4c(F)cccc4OCCCCCCCN4CCC(c5cc6c(cc5F)C(=O)N(C5CCC(=O)NC5=O)C6)CC4)c(Cl)cc23)CC1 (centres unmarked) ?
Result string: B′

====

test system: H358 cells; assay: Cell viability assay (CELLTITER-GLO), H358 cells; type: cell-based; conditions: Table 4; 3 days
metric: Inhibition of H358 cells, IC50 (class)

Below are worked cases with known answers.
- compound: "C=C(Cl)C(=O)N1CCN(c2ncnc3c(F)c(-c4c(F)cccc4OCCCCCCCCCN4CCC(c5cc(F)cc6c5CN(C5CCC(=O)NC5=O)C6=O)CC4)c(Cl)cc23)CC1 (stereo not shown) [Compound 113]"
  testTarget: "H358 cells"
  Inhibition of H358 cells, IC50 (class): "B′"
- compound: "C=C(Cl)C(=O)N1CCN(c2ncnc3c(F)c(-c4c(F)cccc4OCCCCCCCN4CCC(c5cc6c(cc5F)C(=O)N(C5CCC(=O)NC5=O)C6)CC4)c(Cl)cc23)CC1 (stereo not shown) [Compound 107]"
  testTarget: "H358 cells"
  Inhibition of H358 cells, IC50 (class): "A′"
- compound: "C=CC(=O)N1CC(N2Cc3ccc(-c4cc(O)cc5ccccc45)cc3N(CCOCCOCCOCCNc3ccc4c(c3)C(=O)N(C3CCC(=O)NC3=O)C4=O)C2=O)C1 (stereo not shown) [Compound 40]"
  testTarget: "H358 cells"
  Inhibition of H358 cells, IC50 (class): "B′"
- compound: "C=C(Cl)C(=O)N1CCN(c2ncnc3c(F)c(-c4c(F)cccc4OCCC4CCC(CCN5CCC(c6cc(F)cc7c6CN(C6CCC(=O)NC6=O)C7=O)CC5)CC4)c(Cl)cc23)CC1 (stereo not shown) [Compound 110]"
  testTarget: "H358 cells"
  Inhibition of H358 cells, IC50 (class): "B′"
- compound: "CCC(=O)N1CCN(c2nc(OC[C@@H]3CCCN3C)nc3c(F)c(-c4c(F)cccc4OCCCCCCCN4CCC(c5cc(F)cc6c5CN(C5CCC(=O)NC5=O)C6=O)CC4)c(Cl)cc23)CC1 (stereo partly shown) [Compound 89]"
  testTarget: "H358 cells"
  Inhibition of H358 cells, IC50 (class): "B′"
- compound: "O=C1CCC(N2Cc3c(cc(F)cc3C3CCN(CCCCCCCOc4cccc(F)c4-c4c(Cl)cc5c(N6CCN(C(=O)C7CCCC7)CC6)ncnc5c4F)CC3)C2=O)C(=O)N1 (stereo not shown) [Compound 51]"
  testTarget: "H358 cells"
  Inhibition of H358 cells, IC50 (class): "B′"

Query string: So what Inhibition of H358 cells, IC50 (class) did NC(=O)N1CCN(c2ncnc3c(F)c(-c4c(F)cccc4OCCCCCCCN4CCC(c5cc(F)cc6c5CN(C5CCC(=O)NC5=O)C6=O)CC4)c(Cl)cc23)CC1 (stereo not shown) [Compound 83] get with H358 cells?
Result string: B′

Query string: What do you get for C=C(Cl)C(=O)N1CCN(c2ncnc3cc(-c4c(F)cccc4OCCCCCCCN4CCC(c5cccc6c5CN(C5CCC(=O)NC5=O)C6=O)CC4)c(Cl)cc23)CC1 (stereo not shown) [Compound 105] ?
Result string: A′

Query string: What do you get for CC(C)/C=C(\Cl)C(=O)N1CCN(c2ncnc3c(F)c(-c4c(F)cccc4OCCCCCCCN4CCC(c5cc(F)cc6c5CN(C5CCC(=O)NC5=O)C6=O)CC4)c(Cl)cc23)CC1 (stereo not shown) [Compound 97] ?
Result string: B′

Query string: What do you get for C=CC(=O)N1C[C@@H]2C(=O)N(CCCCCCCN3CCC(c4cc(F)cc5c4CN(C4CCC(=O)NC4=O)C5=O)CC3)c3cnc4c(F)c(-c5c(O)cccc5F)c(Cl)cc4c3N2C[C@H]1C (stereo partly shown) [Compound 66] ?
Result string: A′
